Where these numbers come from: patent US8329726B2

Could you please report measured IC50 for the items listed next?
Biological target: recombinant human c-Met/HGF receptor (Homo sapiens)
Construct: His tag (pBlueBacHis2A vector); made in house; host or cells: Hi-5 cells (Trichoplusia ni), baculovirus
Sequence (P08581 1078-1337): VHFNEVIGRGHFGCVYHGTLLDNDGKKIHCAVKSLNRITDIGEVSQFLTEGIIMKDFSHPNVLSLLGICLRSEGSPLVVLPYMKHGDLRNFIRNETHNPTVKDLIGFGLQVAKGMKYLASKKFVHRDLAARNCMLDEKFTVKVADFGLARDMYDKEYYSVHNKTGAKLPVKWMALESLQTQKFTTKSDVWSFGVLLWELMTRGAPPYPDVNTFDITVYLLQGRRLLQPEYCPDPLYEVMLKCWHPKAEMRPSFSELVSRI
Test: In vitro receptor tyrosine kinase assay (DELFIA), c-Met/HGF receptor
Assay type: biochemical
Conditions: read-out: CMET IC50

Query block: Using known records, supply IC50 for `CN(C(=O)CC(=O)Nc1ccc(Oc2ccnc3cc(-c4cn(CCCN5CCCC5)cn4)sc23)c(F)c1)c1ccccc1`
Result block: < 50 nM

Query block: Report IC50, nothing else, for this compound: `CN1CCN(Cc2ccc(-c3cc4nccc(Oc5ccc(NC(=O)CC(=O)Nc6ccccc6)cc5F)c4s3)nc2)CC1`
Result block: < 50 nM

Query block: Return the recorded IC50 value; entry: Cn1cnc(-c2cc3nccc(Oc4ccc(NC(=O)C5CCN(c6ccccc6)C5=O)cc4F)c3s2)c1 (stereo not shown)
Result block: < 50 nM

Query block: Supply measured IC50 of `CN(C)NC(=O)c1cc2nccc(Oc3ccc(NC(=O)CC(=O)N(C)c4ccccc4)cc3F)c2s1` in your reply.
Result block: 250 to 500 nM

Query block: Tell me its IC50 given `O=C(Nc1ccc(Oc2ccnc3cc(-c4ccc(CN5CCNCC5)cc4)sc23)c(F)c1)N1CCN(c2ccccc2)C1=O` as the entry.
Result block: < 50 nM

Query block: Identify the reported IC50 for the following entry. Cn1ccnc1-c1cc2nccc(Oc3ccc(NC(=O)CC(=O)Nc4cccnc4)cc3F)c2s1 [drawing 282]
Result block: 250 to 500 nM

Query block: Kindly indicate its recorded IC50. Item: `CCn1cnc(-c2cc3nccc(Oc4ccc(NC(=O)C5(C(=O)Nc6ccccc6OC)CC5)cc4F)c3s2)c1`
Result block: < 50 nM

Query block: For the compound `CCN(C(=O)CC(=O)Nc1ccc(Oc2ccnc3cc(-c4cn(CC)cn4)sc23)c(F)c1)c1ccccc1` , report IC50.
Result block: 50 to 250 nM

Query block: Supply reported IC50 belonging to this compound: `Cn1cnc(-c2cc3nccc(Oc4ccc(NC(=O)N5CCN(c6ccc(F)cc6)C5=O)cc4F)c3s2)c1`
Result block: < 50 nM

Query block: Please supply the value of reported IC50 for the item Cn1cnc(-c2cc3nccc(Oc4ccc(NC(CC(=O)Nc5ccc(F)cc5)C(F)(F)F)cc4)c3s2)c1 (stereo not shown)
Result block: 50 to 250 nM

Query block: Read the entry Cn1cnc(-c2cc3nccc(Oc4ccc(NC(=O)C5CCN(c6cccnc6)C5=O)cc4F)c3s2)c1 (stereo not shown) and write its reported IC50.
Result block: 250 to 500 nM

Query block: State its IC50: `CN1CCN(CCN(C)Cc2ccc(-c3cc4nccc(Oc5ccc(NC(=O)CC(=O)Nc6cccc(F)c6)cc5F)c4s3)cc2)CC1`
Result block: 50 to 250 nM

Query block: Please report IC50 for the following compound: `COc1ccccc1CCNC(=O)C(=O)Nc1ccc(Oc2ccnc3cc(-c4ccc(OCCN5CCOCC5)c(OC)c4)sc23)c(F)c1`
Result block: 250 to 500 nM

Query block: Read off the recorded IC50 for `Cn1cnc(-c2cc3nccc(Nc4ccc(NC(=O)C5(C(=O)Nc6ccc(F)cc6)CC5)cc4F)c3s2)c1`
Result block: < 50 nM

Query block: Report IC50, nothing else, for this compound: `CN(C(=O)CC(=O)Nc1ccc(Oc2ccnc3cc(-c4cn(C)cn4)sc23)c(F)c1)c1ccccc1F`
Result block: 50 to 250 nM

Query block: For the compound `CCn1cnc(-c2cc3nccc(Oc4ccc(NC(=O)CC(=O)Nc5cccc(OC)c5)cc4F)c3s2)c1` , give its reported IC50.
Result block: 50 to 250 nM
